# Protocol: Viability qHTS for spleen associated tyrosine kinase inhibitor (SYKi) naive MV4-11 cells (AID 1963823); further: nearly all actives have a fitted effect of over 40% in size
# Run parameters: MV4-11 AML viability, CellTiter-Glo luminescence, 72 h; series mostly up to 45 µM
Results filed as inconclusive are left out. The source made the active and inactive calls. The call rests on the fitted dose curve; in most records, active means well fitted cell-killing curve with a large enough effect; inconclusive means small, poorly fitted or top-dose-only effect, or effect the other way; inactive means no such curve, though single readings can be large or run the other way.
Outcomes: active, inactive

- Compound: "CN(C)Cc1ccc(-c2cnn3c(-c4cccc(NC(=O)c5cccc(C(F)(F)F)c5)c4)ccnc23)cc1"
  Cat: "active"
- Compound: "C/C1=C\\CC(C)(C)/C=C/C/C(C(=O)O)=C/CC1"
  Cat: "active"
- Compound: "CC(=O)OC[C@@]12[C@@H](OC(C)=O)C[C@@H](C)[C@](C)([C@@H]3C[C@H]4C=CO[C@H]4O3)[C@H]1CCC[C@]21CO1"
  Cat: "inactive"
- Compound: "CC1=C(/C=C/C(C)=C/C=C/C(C)=C/C=C/C=C(C)/C=C/C=C(C)/C=C/C2=C(C)CCCC2(C)C)C(C)(C)CCC1"
  Cat: "active"
- Compound: "CC(C)=CCc1cc(O[C@@H]2O[C@H](CO[C@@H]3OC[C@](O)(CO)[C@H]3O)[C@@H](O)[C@H](O)[C@H]2O)ccc1O"
  Cat: "inactive"
- Compound: "CC(=O)O[C@H]1[C@@]2(O)C[C@H](C)[C@H](OC(=O)c3ccccc3)[C@@H]2[C@@H](OC(=O)CO)[C@]2(OC(C)=O)C[C@H]3C(=O)C(C)(C)C[C@@H]3[C@@]1(C)[C@H]2OC(C)=O"
  Cat: "inactive"
- Compound: "O=C(Nc1nc2ccccc2n1CCc1ccccc1)c1ccccc1"
  Cat: "inactive"
- Compound: "CC12CCC3c4ccc(OC5OC(C(=O)O)C(O)C(O)C5O)cc4CCC3C1CCC2O (stereo not drawn)"
  Cat: "inactive"

----------
# Protocol: Quantitative highthroughput screen to assess conditional lethalithy of SEM cells grown in RPMI1640 with dialyzed fetal bovine serum (RPMI+ds) (AID 1963884); further: nearly all actives have a fitted effect of over 35% in size; further: potency means the concentration at half of the fitted maximal effect
# Run parameters: SEM B-ALL cells, RPMI+dialyzed FBS, CellTiter-Glo viability, 48 h; series mostly up to 45.8 µM
Inconclusive results are not listed. Activity calls are given as the source filed them. Calls come from the whole dose curve; as a rule, active = well fitted cell-killing curve with a large enough effect; inconclusive = small, poorly fitted or top-dose-only effect, or effect the other way; inactive = no such curve, though single readings can be large or run the other way.

- Molecule: "CC=C1C2C=C(C)CC1(N)c1ccc(=O)[nH]c1C2 (stereo not given)"
  Potency: "inactive"
- Molecule: "CC1(C)CCC2=C(O1)c1ccccc1C(=O)C2=O"
  Potency: "18.7 µM (active)"
- Molecule: "O=C(O)[C@H](CC(=O)N1C[C@@H]2CCCC[C@H]2C1)Cc1ccccc1"
  Potency: "inactive"
- Molecule: "CC(C)(C)C(=O)Oc1ccc(S(=O)(=O)Nc2ccccc2C(=O)NCC(=O)O)cc1"
  Potency: "inactive"
- Molecule: "CC(C)OC(=O)C(C(=O)OC(C)C)=C1SC=CS1"
  Potency: "inactive"
- Molecule: "Nc1ncn([C@@H]2O[C@H](CO)[C@@H](O)[C@@H]2O)c(=O)n1"
  Potency: "4.69 µM (active)"
- Molecule: "Cc1cc(=O)c2c(O)c3c(O)cc(=O)c4c3c3c(cc(O)c1c23)C(C)(C)C=4O"
  Potency: "inactive"
- Molecule: "O=C(CS(=O)Cc1ccco1)NCC=CCOc1cc(CN2CCCCC2)ccn1 (stereo not given)"
  Potency: "inactive"
- Molecule: "CC(=O)O[C@]1(C(C)=O)CC[C@H]2[C@@H]3C=C(Cl)C4=CC(=O)[C@@H]5C[C@H]5[C@]4(C)[C@@H]3CC[C@@]21C"
  Potency: "inactive"
- Molecule: "O=c1cc(CN2CCOCC2)occ1OCCCCCSc1ccnc2cc(C(F)(F)F)ccc12"
  Potency: "inactive"
